Taken from patent US20120045438A1.

# Tested on: T1, human IL-13 R130Q variant (R110Q of the mature chain) (human, UniProt P35225 35-146, Biotinylated on amines (NHS-LC-biotin, 4:1) in ELISA, panning and competition assays. The letters are unchanged.)
# T1 construct: R130Q counts from Met 1 of the signal peptide, R110Q on the mature chain; Bought from Peprotech; also called IL-13 R110Q; b-R130Q
# T1 sequence (P35225 35-146 limits assumed, stated change not applied): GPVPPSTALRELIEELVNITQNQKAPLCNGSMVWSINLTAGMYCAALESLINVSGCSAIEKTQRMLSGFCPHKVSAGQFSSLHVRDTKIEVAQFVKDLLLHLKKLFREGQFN
# Experiment summary: single-point (10 nM) phage Fab ELISA on biotinylated IL-13 R130Q
Attribute measured: % of Lc16Hc7 (%)
Use % as the unit, but write only the number.

Consider the following illustrative entries.
{"columns": ["Binder", "Observed value"],
 "data": [
  ["Phage # 80 Fab (IL-13-142 library) (Fab, V domains shown, Fab on phage pIX; del = residue deleted) VH: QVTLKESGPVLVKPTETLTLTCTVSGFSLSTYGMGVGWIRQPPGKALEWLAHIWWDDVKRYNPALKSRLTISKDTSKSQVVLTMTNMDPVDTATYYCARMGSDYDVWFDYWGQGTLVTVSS VL: DIQMTQSPSTLSASVGDRVTITCRASKSISKYLAWYQQKPGKAPKLLIYSGSTLQSGVPSRFSGSGSGTEFTLTISSLQPDDFATYYCQQQDYPYTFGGGTKVEIK", 163],
  ["Phage # 27 Fab (IL-13-142 library) (Fab, V domains shown, Fab on phage pIX) VH: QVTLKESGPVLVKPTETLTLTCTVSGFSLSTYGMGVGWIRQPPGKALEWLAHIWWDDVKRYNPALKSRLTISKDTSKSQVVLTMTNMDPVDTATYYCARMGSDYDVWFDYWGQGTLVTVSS VL: DIQMTQSPSTLSASVGDRVTITCRASKSISKYLAWYQQKPGKAPKLLIYSGSTLQSGVPSRFSGSGSGTEFTLTISSLQPDDFATYYCQQHNDSPYTFGGGTKVEIK", 238]
]}

For the binder shown here, Phage # 46 Fab (IL-13-142 library) (Fab, V domains shown, Fab on phage pIX) VH: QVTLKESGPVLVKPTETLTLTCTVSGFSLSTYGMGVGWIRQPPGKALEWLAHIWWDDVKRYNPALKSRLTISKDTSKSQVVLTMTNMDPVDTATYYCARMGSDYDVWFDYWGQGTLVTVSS VL: DIQMTQSPSTLSASVGDRVTITCRASKSISKYLAWYQQKPGKAPKLLIYSGSTLQSGVPSRFSGSGSGTEFTLTISSLQPDDFATYYCQQHVTLPYTFGGGTKVEIK , give the reported % of Lc16Hc7.
281
